- target_system: UniProtKB O75469
- Sequence (O75469 whole entry): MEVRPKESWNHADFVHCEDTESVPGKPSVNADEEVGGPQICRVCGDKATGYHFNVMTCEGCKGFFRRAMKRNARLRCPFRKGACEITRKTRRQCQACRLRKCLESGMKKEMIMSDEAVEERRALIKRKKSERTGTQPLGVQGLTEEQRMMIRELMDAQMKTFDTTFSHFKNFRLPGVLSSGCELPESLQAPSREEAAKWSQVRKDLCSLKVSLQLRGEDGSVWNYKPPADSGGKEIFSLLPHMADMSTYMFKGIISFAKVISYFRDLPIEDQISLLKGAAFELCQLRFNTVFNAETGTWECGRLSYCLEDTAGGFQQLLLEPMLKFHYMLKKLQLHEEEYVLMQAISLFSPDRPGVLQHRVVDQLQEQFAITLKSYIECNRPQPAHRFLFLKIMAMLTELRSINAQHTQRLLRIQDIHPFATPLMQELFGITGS
- assay: Activation of human PXR in DPX2 cells after 24 hrs by microplate reader relative to control
- Assay type: ADME, cell-based
- run_parameters: human, DPX2 cells; read-out: FC
# maps each entry to its fold induction at 24 h

>  <structure_smiles>
CNc1c(C)c2c3c4c(O)c(/C=N/N5CCN(C)CC5)c(c(O)c14)NC(=O)/C(C)=C\C=C\[C@H](C)[C@H](O)[C@@H](C)[C@@H](O)[C@@H](C)[C@H](OC(C)=O)[C@H](C)[C@@H](OC)/C=C/O[C@@](C)(O2)C3=O

>  <fold induction at 24 h>
8.9

$$$$
>  <structure_smiles>
CNc1c(C)c2c3c4c1C(=O)C(=C(/C=N/N1CCN(C)CC1)C4=O)NC(=O)/C(C)=C\C=C\[C@H](C)[C@H](O)[C@@H](C)[C@@H](O)[C@@H](C)[C@H](OC(C)=O)[C@H](C)[C@@H](OC)/C=C/O[C@@](C)(O2)C3=O

>  <fold induction at 24 h>
6.9

$$$$

====

- Test system: Escherichia coli
- assay: Antimicrobial activity against wild type Escherichia coli TG2 after 16 to 20 hrs
- Type: functional

>  <compound>
CO[C@H]1/C=C/O[C@@]2(C)Oc3c(C)c(N)c4c(c3C2=O)C(=O)C=C(NC(=O)/C(C)=C\C=C\[C@H](C)[C@H](O)[C@@H](C)[C@@H](O)[C@@H](C)[C@H](OC(C)=O)[C@@H]1C)C4=O

>  <target_system>
Escherichia coli

>  <MIC90>
> 100 µM

$$$$
>  <compound>
CO[C@H]1/C=C/O[C@@]2(C)Oc3c(C)c(SC)c4c(c3C2=O)C(=O)C=C(NC(=O)/C(C)=C\C=C\[C@H](C)[C@H](O)[C@@H](C)[C@@H](O)[C@@H](C)[C@H](OC(C)=O)[C@@H]1C)C4=O

>  <target_system>
Escherichia coli

>  <MIC90>
> 100 µM

$$$$
>  <compound>
CO[C@H]1/C=C/O[C@@]2(C)Oc3c(C)c(NC4CCCCCC4)c4c(c3C2=O)C(=O)C=C(NC(=O)/C(C)=C\C=C\[C@H](C)[C@H](O)[C@@H](C)[C@@H](O)[C@@H](C)[C@H](OC(C)=O)[C@@H]1C)C4=O

>  <target_system>
Escherichia coli

>  <MIC90>
> 100 µM

$$$$
>  <compound>
CO[C@H]1/C=C/O[C@@]2(C)Oc3c(C)c(O)c4c(O)c(c(/C=N/N5CCN(C)CC5)c(O)c4c3C2=O)NC(=O)/C(C)=C\C=C\[C@H](C)[C@H](O)[C@@H](C)[C@@H](O)[C@@H](C)[C@H](OC(C)=O)[C@@H]1C [RIFAMPIN]

>  <target_system>
Escherichia coli

>  <MIC90>
12.5 µM

$$$$
>  <compound>
CO[C@H]1/C=C/O[C@@]2(C)Oc3c(c4c5c(nn(CCO)c5c3C)C(=C(/C=N/N3CCN(C)CC3)C4=O)NC(=O)/C(C)=C\C=C\[C@H](C)[C@H](O)[C@@H](C)[C@@H](O)[C@@H](C)[C@H](OC(C)=O)[C@@H]1C)C2=O

>  <target_system>
Escherichia coli

>  <MIC90>
> 100 µM

$$$$
>  <compound>
CO[C@H]1/C=C/O[C@@]2(C)Oc3c(C)c(N(C)C)c4c(c3C2=O)C(=O)C=C(NC(=O)/C(C)=C\C=C\[C@H](C)[C@H](O)[C@@H](C)[C@@H](O)[C@@H](C)[C@H](OC(C)=O)[C@@H]1C)C4=O

>  <target_system>
Escherichia coli

>  <MIC90>
> 100 µM

$$$$
>  <compound>
CO[C@H]1/C=C/O[C@@]2(C)Oc3c(C)c(O)c4c(c3C2=O)C(=O)C(/C=N/N2CCN(C)CC2)=C(NC(=O)/C(C)=C\C=C\[C@H](C)[C@H](O)[C@@H](C)[C@@H](O)[C@@H](C)[C@H](OC(C)=O)[C@@H]1C)C4=O [RIFAMPIN S]

>  <target_system>
Escherichia coli

>  <MIC90>
12.5 µM

$$$$
>  <compound>
CO[C@H]1/C=C/O[C@@]2(C)Oc3c(C)c(OS(=O)(=O)c4ccc(C)cc4)c4c(c3C2=O)C(=O)C=C(NC(=O)/C(C)=C\C=C\[C@H](C)[C@H](O)[C@@H](C)[C@@H](O)[C@@H](C)[C@H](OC(C)=O)[C@@H]1C)C4=O

>  <target_system>
Escherichia coli

>  <MIC90>
> 100 µM

$$$$
>  <compound>
CO[C@H]1/C=C/O[C@@]2(C)Oc3c(C)c(O)c4c(c3C2=O)C(=O)C=C(NC(=O)/C(C)=C\C=C\[C@H](C)[C@H](O)[C@@H](C)[C@@H](O)[C@@H](C)[C@H](OC(C)=O)[C@@H]1C)C4=O [RIFAMYCIN S]

>  <target_system>
Escherichia coli

>  <MIC90>
100 µM

$$$$
>  <compound>
CO[C@H]1/C=C/O[C@@]2(C)Oc3c(C)c(OS(=O)(=O)c4ccc(C)cc4)c4c(c3C2=O)C(=O)C(/C=N/N2CCN(C)CC2)=C(NC(=O)/C(C)=C\C=C\[C@H](C)[C@H](O)[C@@H](C)[C@@H](O)[C@@H](C)[C@H](OC(C)=O)[C@@H]1C)C4=O

>  <target_system>
Escherichia coli

>  <MIC90>
> 100 µM

$$$$

====

- Tested on: Mycobacterium tuberculosis
- assay: Antimicrobial activity against replicating Mycobacterium tuberculosis after 8 days by micro plate alamar blue assay
- Assay type: functional
- run_parameters: 192 h

>  <structure_smiles>
CO[C@H]1/C=C/O[C@@]2(C)Oc3c(c4c5c(nn(CCO)c5c3C)C(=C(/C=N/N3CCN(C)CC3)C4=O)NC(=O)/C(C)=C\C=C\[C@H](C)[C@H](O)[C@@H](C)[C@@H](O)[C@@H](C)[C@H](OC(C)=O)[C@@H]1C)C2=O

>  <lt_gt_eq>
=

>  <MIC90 / µM>
3.9

$$$$
>  <structure_smiles>
CNc1c(C)c2c3c4c1C(=O)C(=CC4=O)NC(=O)/C(C)=C\C=C\[C@H](C)[C@H](O)[C@@H](C)[C@@H](O)[C@@H](C)[C@H](OC(C)=O)[C@H](C)[C@@H](OC)/C=C/O[C@@](C)(O2)C3=O

>  <lt_gt_eq>
>

>  <MIC90 / µM>
5.6

$$$$
>  <structure_smiles>
CO[C@H]1/C=C/O[C@@]2(C)Oc3c(C)c(NC4CCCCCC4)c4c(c3C2=O)C(=O)C=C(NC(=O)/C(C)=C\C=C\[C@H](C)[C@H](O)[C@@H](C)[C@@H](O)[C@@H](C)[C@H](OC(C)=O)[C@@H]1C)C4=O

>  <lt_gt_eq>
=

>  <MIC90 / µM>
2.2

$$$$
>  <structure_smiles>
CO[C@H]1/C=C/O[C@@]2(C)Oc3c(c4c5c(nn(C)c5c3C)C(=C(/C=N/N3CCN(C)CC3)C4=O)NC(=O)/C(C)=C\C=C\[C@H](C)[C@H](O)[C@@H](C)[C@@H](O)[C@@H](C)[C@H](OC(C)=O)[C@@H]1C)C2=O

>  <lt_gt_eq>
>

>  <MIC90 / µM>
4.8

$$$$

====

- System: Escherichia coli
- assay: Antimicrobial activity against Escherichia coli EC2880 mutant after 16 to 20 hrs
- Assay type: functional
readout: MIC90 (µM)

>  <structure_smiles>
CO[C@H]1/C=C/O[C@@]2(C)Oc3c(C)c(SC)c4c(c3C2=O)C(=O)C=C(NC(=O)/C(C)=C\C=C\[C@H](C)[C@H](O)[C@@H](C)[C@@H](O)[C@@H](C)[C@H](OC(C)=O)[C@@H]1C)C4=O

>  <target_system>
Escherichia coli

>  <lt_gt_eq>
>

>  <measurement>
12.5

$$$$
>  <structure_smiles>
CO[C@H]1/C=C/O[C@@]2(C)Oc3c(C)c(O)c4c(c3C2=O)C(=O)C=C(NC(=O)/C(C)=C\C=C\[C@H](C)[C@H](O)[C@@H](C)[C@@H](O)[C@@H](C)[C@H](OC(C)=O)[C@@H]1C)C4=O

>  <target_system>
Escherichia coli

>  <lt_gt_eq>
=

>  <measurement>
0.78

$$$$
>  <structure_smiles>
CO[C@H]1/C=C/O[C@@]2(C)Oc3c(C)c(NC4CCCCCC4)c4c(c3C2=O)C(=O)C=C(NC(=O)/C(C)=C\C=C\[C@H](C)[C@H](O)[C@@H](C)[C@@H](O)[C@@H](C)[C@H](OC(C)=O)[C@@H]1C)C4=O

>  <target_system>
Escherichia coli

>  <lt_gt_eq>
>

>  <measurement>
12.5

$$$$
>  <structure_smiles>
CO[C@H]1/C=C/O[C@@]2(C)Oc3c(C)c(O)c4c(O)c(c(/C=N/N5CCN(C)CC5)c(O)c4c3C2=O)NC(=O)/C(C)=C\C=C\[C@H](C)[C@H](O)[C@@H](C)[C@@H](O)[C@@H](C)[C@H](OC(C)=O)[C@@H]1C

>  <target_system>
Escherichia coli

>  <lt_gt_eq>
=

>  <measurement>
0.1

$$$$

Cited source for all entries: ChEMBL document CHEMBL1909569
